Target: T1, MMR (UniProt P22897 19-1383)
T1 sequence (looked up): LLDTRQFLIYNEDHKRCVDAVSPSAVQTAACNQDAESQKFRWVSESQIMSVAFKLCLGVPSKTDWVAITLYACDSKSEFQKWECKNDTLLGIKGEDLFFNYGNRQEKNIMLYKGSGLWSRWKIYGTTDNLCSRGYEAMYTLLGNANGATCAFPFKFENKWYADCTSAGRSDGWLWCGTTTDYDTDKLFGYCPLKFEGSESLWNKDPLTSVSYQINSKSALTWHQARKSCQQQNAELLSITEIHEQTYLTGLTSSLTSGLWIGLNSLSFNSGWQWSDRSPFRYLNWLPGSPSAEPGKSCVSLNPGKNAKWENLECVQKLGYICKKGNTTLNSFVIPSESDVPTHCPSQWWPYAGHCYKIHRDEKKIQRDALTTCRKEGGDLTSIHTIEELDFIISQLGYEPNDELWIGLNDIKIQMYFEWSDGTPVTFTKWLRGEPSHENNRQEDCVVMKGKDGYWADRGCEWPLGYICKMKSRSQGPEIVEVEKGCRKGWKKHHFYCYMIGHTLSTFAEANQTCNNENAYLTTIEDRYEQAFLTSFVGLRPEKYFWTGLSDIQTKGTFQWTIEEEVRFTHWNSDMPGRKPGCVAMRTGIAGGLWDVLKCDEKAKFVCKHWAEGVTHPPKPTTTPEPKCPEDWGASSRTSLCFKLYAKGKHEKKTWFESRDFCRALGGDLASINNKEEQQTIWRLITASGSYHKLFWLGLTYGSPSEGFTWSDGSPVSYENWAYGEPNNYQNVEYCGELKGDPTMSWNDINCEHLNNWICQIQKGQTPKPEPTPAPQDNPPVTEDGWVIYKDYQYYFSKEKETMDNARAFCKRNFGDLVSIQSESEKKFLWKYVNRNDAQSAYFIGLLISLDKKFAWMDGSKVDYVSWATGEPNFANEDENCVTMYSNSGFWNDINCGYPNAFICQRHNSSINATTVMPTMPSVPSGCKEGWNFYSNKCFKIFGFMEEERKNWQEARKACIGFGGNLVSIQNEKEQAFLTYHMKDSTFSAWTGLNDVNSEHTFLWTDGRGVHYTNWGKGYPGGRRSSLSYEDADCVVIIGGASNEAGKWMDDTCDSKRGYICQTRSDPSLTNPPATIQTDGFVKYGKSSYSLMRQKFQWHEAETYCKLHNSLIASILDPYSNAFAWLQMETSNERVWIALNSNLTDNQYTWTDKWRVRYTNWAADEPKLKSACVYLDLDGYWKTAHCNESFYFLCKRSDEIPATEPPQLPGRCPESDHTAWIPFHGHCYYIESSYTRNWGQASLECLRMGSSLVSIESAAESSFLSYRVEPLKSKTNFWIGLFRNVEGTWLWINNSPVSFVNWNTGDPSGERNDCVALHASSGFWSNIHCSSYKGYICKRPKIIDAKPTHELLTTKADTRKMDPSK
Test: ELISA
measurement-name: binding result

[change]/[change] (other) DKTHTCPPCPAPELLGGPSVFLFPPKPKDTLMISRTPEVTCVVVDVSHEDPEVKFNWYVDGVEVHNAKTKPREEQYASTYRVVSVLTVCLQDWLNGKEYKCKVSNKALPAPIEKTISKAKGQPREPQVYTLPPSREEMTKNQVSLTCLVKGFYPSDIAVEWESNGQPENNYKTTPPVLDSDGSFFLYSKLTVDKSRWQQGNVFSCSVMHEALHNHYTQKSLSLSPGKLVLGPPLYNVSLVMSDTAGTAY; no binding
[change]/[change]/[change] (other) NKTHTCPPCPAPELLGGPSVFLFPPKPKDTLMISRTPEVTCVVVDVSHEDPEVKFNWYVDGVEVHNAKTKPREEQYASTYRVVSVLTVCLQDWLNGKEYKCKVSNKALPAPIEKTISKAKGQPREPQVYTLPPSREEMTKNQVSLTCLVKGFYPSDIAVEWESNGQPENNYKTTPPVLDSDGSFFLYSKLTVDKSRWQQGNVFSCSVMHEALHNHYTQKSLSLSPGKLVLGPPLYNVSLVMSDTAGTAY; no binding
[change]/[change]/[change] (other) NKTHTCPPCPAPELLGGPSVFLFPPKPKDTLMISRTPEVTCVVVDVSHEDPEVKFNWYVDGVEVHNAKTKPREEQYNSTYRVVSVLTVCLQDWLNGKEYKCKVSNKALPAPIEKTISKAKGQPREPQVYTLPPSREEMTKNQVSLTCLVKGFYPSDIAVEWESNGQPENNYKTTPPVLDSDGSFFLYSKLTVDKSRWQQGNVFSCSVMHEALHNHYTQKSLSLSPGKLVLGPPLYAVSLVMSDTAGTAY; no binding
